The origin of these recorded values is the supplement of paper PMC10567573.

B1: MGC27345 (parent)
chain: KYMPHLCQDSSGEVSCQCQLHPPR

Variants of: B1
Test: protein stability index of a GFP-peptide fusion (GPS, HEK-293T) (PSI 1-6); higher = more stable;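 also: lentivirally expressed fusions sorted by FACS into six bins by GFP to DsRed ratio, PSI derived from sequencing read proportions per bin multiplied by bin number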
Settings: c terminus: a fixed tail appended
Label criterion not met if protein stability index falls below 2; label criterion met in every other case.

*Q* Could you verify whether the entry KYMDHLCQDSSGEVSCQCQLHPPR [P4D] shows protein stability index of no less than 2?
*A* criterion met

*Q* Could you verify whether the entry KYMPHLIQDSSGEVSCQCQLHPPR [C7I] shows protein stability index of no less than 2?
*A* criterion not met

*Q* Could you verify whether the entry KYMPHLCQDSSGEVRCQCQLHPPR [S15R] shows protein stability index of no less than 2?
*A* criterion not met

*Q* Could you verify whether the entry KYMPHLCQDSSGEVSCQNQLHPPR [C18N] shows protein stability index of no less than 2?
*A* criterion met

*Q* Could you verify whether the entry KYMPHLCQDSSGEVSCQCQLHEPR [P22E] shows protein stability index of no less than 2?
*A* criterion met

*Q* Could you verify whether the entry KYGPHLCQDSSGEVSCQCQLHPPR [M3G] shows protein stability index of no less than 2?
*A* criterion met

*Q* Could you verify whether the entry KYMPHQCQDSSGEVSCQCQLHPPR [L6Q] shows protein stability index of no less than 2?
*A* criterion met

*Q* Could you verify whether the entry KYMPHLCQDSSGEVSGQCQLHPPR [C16G] shows protein stability index of no less than 2?
*A* criterion met

*Q* Could you verify whether the entry KYMPPLCQDSSGEVSCQCQLHPPR [H5P] shows protein stability index of no less than 2?
*A* criterion met

*Q* Could you verify whether the entry KYMPHLNQDSSGEVSCQCQLHPPR [C7N] shows protein stability index of no less than 2?
*A* criterion not met

*Q* Could you verify whether the entry KYMPHLCQDSSGEVSCQCQLRPPR [H21R] shows protein stability index of no less than 2?
*A* criterion not met

*Q* Could you verify whether the entry KYMPHLCQDSSGEVSCQCPLHPPR [Q19P] shows protein stability index of no less than 2?
*A* criterion met

*Q* Could you verify whether the entry KYMPHLCQDSSGEVSCCCQLHPPR [Q17C] shows protein stability index of no less than 2?
*A* criterion met

*Q* Could you verify whether the entry KHMPHLCQDSSGEVSCQCQLHPPR [Y2H] shows protein stability index of no less than 2?
*A* criterion met

*Q* Could you verify whether the entry KYMPHLCQDSSGEVSCQCQLHPPA [R24A] shows protein stability index of no less than 2?
*A* criterion met

*Q* Could you verify whether the entry KRMPHLCQDSSGEVSCQCQLHPPR [Y2R] shows protein stability index of no less than 2?
*A* criterion met

*Q* Could you verify whether the entry KYMPHLCQWSSGEVSCQCQLHPPR [D9W] shows protein stability index of no less than 2?
*A* criterion not met

*Q* Could you verify whether the entry KYMPHLCQDSSGEVSCQSQLHPPR [C18S] shows protein stability index of no less than 2?
*A* criterion met

*Q* Could you verify whether the entry KYMPHICQDSSGEVSCQCQLHPPR [L6I] shows protein stability index of no less than 2?
*A* criterion met

*Q* Could you verify whether the entry KYMPHLCQDSSGEVSCQCQGHPPR [L20G] shows protein stability index of no less than 2?
*A* criterion not met

*Q* Could you verify whether the entry KYMPHLCQDNSGEVSCQCQLHPPR [S10N] shows protein stability index of no less than 2?
*A* criterion met

*Q* Could you verify whether the entry KYMPHLCQDSSGEVSCQCQLFPPR [H21F] shows protein stability index of no less than 2?
*A* criterion not met
